Sourced from patent US7094754B2

# test: Viability assay (MTT) in EpiDerm skin model
# Type: cell-based
# settings: human, EpiDerm skin model (MatTek), relative to PBS control, average over 500 μM and 2 mM, read-out: total average viability
measurementType: viability at 12 h

[[record]]
compoundstructure = "CC(C)[C@H](NC(=O)[C@H](CC(=O)O)NC(=O)[C@@H]1CCCN1C(=O)[C@H](CC(N)=O)NC(=O)CNC(=O)[C@H](CS)NC(=O)[C@H](CCCNC(=N)N)NC(=O)[C@@H]1CCCN1)C(=O)N[C@@H](C)C(=O)N[C@@H](CC(N)=O)C(=O)N[C@@H](Cc1ccc(O)cc1)C(=O)N[C@@H](CC(N)=O)C(=O)N[C@@H](Cc1ccccc1)C(=O)N[C@@H](Cc1ccccc1)C(=O)N1CCC[C@H]1C(=O)N[C@@H](CCCNC(=N)N)C(=O)N[C@@H](CCCCN)C(=O)N1CCC[C@H]1C(=O)N[C@@H](CCCCN)C(=O)O"
testvalue = "97.6%"

